Molecular target: T1, T2 mechanosensitive channel from Thermoplasma volcanium, tag free (Thermoplasma volcanium)
T1 construct: TVN0821, gene amplified from genomic DNA (DSM 4299 [GSS1*]); 297 amino acids per monomer; Cloned into pNIC28-Bsa4 (TEV site) and pET46 (Enterokinase site); In detergent (0.03 % DDM); also called T2 channel; tag free T2-channel; source: E. coli C43(DE3), purified (DDM solubilised, IMAC, tag cleavage, second IMAC, gel filtration); not shown: His-tag, N-terminal, cleaved
T1 chain: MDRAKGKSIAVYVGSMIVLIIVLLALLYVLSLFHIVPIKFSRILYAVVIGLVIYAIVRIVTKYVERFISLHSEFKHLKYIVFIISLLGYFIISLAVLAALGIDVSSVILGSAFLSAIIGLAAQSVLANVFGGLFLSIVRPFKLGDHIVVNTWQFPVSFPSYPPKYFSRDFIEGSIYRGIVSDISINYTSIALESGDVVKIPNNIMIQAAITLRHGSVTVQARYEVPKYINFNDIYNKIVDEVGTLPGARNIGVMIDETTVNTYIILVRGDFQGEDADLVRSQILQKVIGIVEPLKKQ
Test: SPR; BIAcore 3000, 25 °C, 20 mM sodium phosphate pH 7.4, 150 mM NaCl, 0.03 % DDM; T2 channel amine-coupled on CM5 (1500 - 2000 RU); nanobodies 0.35 - 86.1 nM injected in triplicates; global fit to a simple bimolecular model, KD = kd/ka
Conditions: both partners purified
Observation type: pKd
Please report pKd as the negative decimal logarithm of the molar concentration, giving only the number.

The examples below pair each entry with its known result.
Binder	Observed measurement
nanobody 1 (VHH, pHEN6 vector; also called Nb 1; CA-number 3379; source: E. coli WK6 periplasm, purified (IMAC, gel filtration); not shown: His-tag, C-terminal, kept) VHH: QVQLQESGGGLVQPGGSLRLSCAASGRIPFITAMGWYRQAPGKQRELLASVTNSEITNYADSVKGRFTISRDNARNRVYLQMNSLKPEDTAVYYCNVKRAGNLIDYWGQGTQVTVSS	7.85
nanobody 2 (VHH, pHEN6 vector; also called Nb 2; CA-number 3381; source: E. coli WK6 periplasm, purified (IMAC, gel filtration); not shown: His-tag, C-terminal, kept) VHH: QVQLQESGGGLVQAGGSLRLSCAASGGTFRTGGMAWFRQAPGKAREFAAGISWSGGSTDYGDSVKGRFTISRDNAKNTVYLQMNSLKPEDTAVYYCAASRRFRSGVLTRADDVDYWGKGTQVTVSS	7.09
nanobody 17 (VHH, pHEN6 vector; also called Nb 17; CA-number 3399; source: E. coli WK6 periplasm, purified (IMAC, gel filtration); not shown: His-tag, C-terminal, kept) VHH: QVQLQESGGGLVQPGGSLRLSCAASGSIFSINSMDWYRQAPGKQRELVATITSGGSTNYADSVKGRFTISRDNGKNTVYLQMNSLKPEDTAVYYCHAVVSTRGGYWGQGTQVTVSS	8.35
nanobody 10 (VHH, pHEN6 vector; also called Nb 10; CA-number 3391; source: E. coli WK6 periplasm, purified (IMAC, gel filtration); not shown: His-tag, C-terminal, kept) VHH: QVQLQESGGGLVQPGGSLRLSCAASGSIFSINSMDWYRQAPGKQRELVATITSGGSTNYADSVKGRFTISRDNAKNTVYLQMNSLKPEDTAVYYCHAVVATRGGYWGQGTQVTVSS	8.41
nanobody 20 (VHH, pHEN6 vector; also called Nb 20; CA-number 3403; source: E. coli WK6 periplasm, purified (IMAC, gel filtration); not shown: His-tag, C-terminal, kept) VHH: QVQLQESGGGLVQPGGSLRLSCAASGNIFGINSMDWYRQAPGKQRELVATITSGGSTNYGDSVKGRFTISRDNAKNTMYLQMNSLKPEDTAVYYCHAVLSTRGGYWGQGTQVTVSS	8.46
nanobody 7 (VHH, pHEN6 vector; also called Nb 7; CA-number 3388; source: E. coli WK6 periplasm, purified (IMAC, gel filtration); not shown: His-tag, C-terminal, kept) VHH: QVQLQESGGGLVQPGGSLRLSCTASGTIFMIDAMGWYRQAPGKQRELVALINSGGSTNYADSVKGRFAISRNNARSTVYLQMNSLKPEDTAVYYCNADTWNGVRRDVYWGQGTQVTVSS	7.64
nanobody 3 (VHH, pHEN6 vector; also called Nb 3; CA-number 3382; source: E. coli WK6 periplasm, purified (IMAC, gel filtration); not shown: His-tag, C-terminal, kept) VHH: QVQLQESGGGLVQPGGSLRLSCAASGFTLDYYAIGWFRQTPGKEREGVSCISSSDDSTYYADSVKGRFTISRDNAKNTVYLQMNSLKPEDTAVYYCATGWACTLVAGTNGMDYWGKGTQVTVSS	8.02

Let us examine a further case.
// pKd lookup, binder = nanobody 21 (VHH, pHEN6 vector; also called Nb 21; CA-number 3404; source: E. coli WK6 periplasm, purified (IMAC, gel filtration); not shown: His-tag, C-terminal, kept) VHH: QVQLQESGGGLVQPGGSLRLSCAASGRIPFITAMGWYRQAPGRQRELLATVTNSGSTNYADSVKGRFTISRDNAKNTVSLQMNSLKAEDTAVYYCNVRRLGNLSDYWGQGTQVTVSS , result: 7.43
